Reference for the values: patent US6448256B1

# System: E. fecalis
# procedureDetails: MIC against E. fecalis
# Format: cell-based
# assayConditions: Table 2
The entries below are paired with their reported MIC E. fecalis.
Hi! Could you send only the number? It should be in μ/ml, unit omitted.

Reported MIC E. fecalis for CCc1cc(Nc2cc(=O)n(CCCCOC(=O)C(CO)NC(=O)OC(C)(C)C)c(=O)[nH]2)ccc1C (stereo not shown) was 5

Note to self: MIC E. fecalis recorded for CCc1cc(Nc2cc(=O)n(CCCCOC(=O)[C@@H](N)C(C)C)c(=O)[nH]2)ccc1C was 17

The compound CCc1cc(Nc2cc(=O)n(CCCCOC(=O)C3CCCN3C(=O)OC(C)(C)C)c(=O)[nH]2)ccc1C (stereo not shown) showed MIC E. fecalis equal to 10

// MIC E. fecalis value for CCc1cc(Nc2cc(=O)n(CCCCOC(=O)C(N)CO)c(=O)[nH]2)ccc1C.Cl (stereo not shown) : 20

Documented MIC E. fecalis of CCc1cc(Nc2cc(=O)n(CCCCOC(=O)C(C)N)c(=O)[nH]2)ccc1C (stereo not shown) : 10
